Measured relative viability of individual entries
# Tested on: HARA
# Assay remarks: relative viability (nuclei count vs DMSO), 5 days (fraction); higher = more cells survive
# Assay context: first compound 0.253 µM
API note: the answer field is a bare number with no unit suffix.

Worked examples, 2 molecules total:
Molecule	System tested	relative viability
COc1nc(C)cnc1NS(=O)(=O)c1cccnc1-c1ccc(-c2nnco2)cc1 [Zibotentan] + CS(=O)(=O)CCNCc1ccc(-c2ccc3ncnc(Nc4ccc(OCc5cccc(F)c5)c(Cl)c4)c3c2)o1 [Lapatinib] (partner 2 µM)	HARA	0.813
O=c1cc(-c2cccc3c2Sc2ccccc2S3)oc(N2CCOCC2)c1 + N=C(N)NC(=N)NCCc1ccccc1 [Phenformin] (partner 250 µM)	HARA	0.592

With those in mind, consider the next molecule.
Param item = COc1nc(C)cnc1NS(=O)(=O)c1cccnc1-c1ccc(-c2nnco2)cc1 [Zibotentan] + Cc1cc(Nc2cc(N3CCN(C)CC3)nc(Sc3ccc(NC(=O)C4CC4)cc3)n2)n[nH]1 [Tozasertib] (partner 0.1 µM) ; retrieve measured relative viability.
0.102
